Test: Lung S9 metabolism
Type: in vitro ADME, human
Conditions: human lung S9 fraction, pH 7.4; human lung S9, 1 μM compound, 1 mg/mL S9 protein, NADPH and PAPS; read-out: Clearance
property_name: log10 of microsomal CLint at 1 µM (log10 of the value in µL/min/mg)
Transform log10 | Measure microsomal CLint at 1 µM | Unit µL/min/mg

Known results for compounds:
- smiles_data: "CCc1cc(O)ccc1-c1ccc2c(-c3nc4c([nH]3)CN(CC)[C@H](C(=O)N3CC(N(C)C)C3)C4)n[nH]c2c1"
  log10 of microsomal CLint at 1 µM: -0.22
- smiles_data: "CCc1cc(O)c(F)cc1-c1ccc2c(-c3nc4c([nH]3)CN(C(C)C)[C@H](C(=O)N3CC(C)(N(C)C)C3)C4)n[nH]c2c1"
  log10 of microsomal CLint at 1 µM: 1.73
- smiles_data: "CCCN1Cc2[nH]c(-c3n[nH]c4cc(-c5ccc(O)cc5CC)ccc34)nc2C[C@H]1C(=O)N1CC(N(C)C)C1"
  log10 of microsomal CLint at 1 µM: 0.20
- smiles_data: "CCc1cc(O)c(F)cc1-c1ccc2c(-c3nc4c([nH]3)CN(CC)[C@H](C(=O)N3CC(C)(N(C)C)C3)C4)n[nH]c2c1"
  log10 of microsomal CLint at 1 µM: 1.70
- smiles_data: "CCCN1Cc2[nH]c(-c3n[nH]c4cc(-c5ccc(O)cc5CC)ccc34)nc2C[C@H]1C(=O)N1CC(C)(N(C)C)C1"
  log10 of microsomal CLint at 1 µM: 0.26

Inquiry: Specify log10 of microsomal CLint at 1 µM for `CCc1cc(O)c(F)cc1-c1ccc2c(-c3nc4c([nH]3)CN(CC)[C@H](C(=O)N3CC(N(C)C)C3)C4)n[nH]c2c1` and stop.
Reply text: 1.67

Inquiry: Write down log10 of microsomal CLint at 1 µM measured for item `CCCN1Cc2[nH]c(-c3n[nH]c4cc(-c5cc(F)c(O)cc5CC)ccc34)nc2C[C@H]1C(=O)N1CC(N(C)C)C1`
Reply text: 1.70

* * *

Molecular target: JAK2 (Homo sapiens (Human))
Sequence (O60674 whole entry): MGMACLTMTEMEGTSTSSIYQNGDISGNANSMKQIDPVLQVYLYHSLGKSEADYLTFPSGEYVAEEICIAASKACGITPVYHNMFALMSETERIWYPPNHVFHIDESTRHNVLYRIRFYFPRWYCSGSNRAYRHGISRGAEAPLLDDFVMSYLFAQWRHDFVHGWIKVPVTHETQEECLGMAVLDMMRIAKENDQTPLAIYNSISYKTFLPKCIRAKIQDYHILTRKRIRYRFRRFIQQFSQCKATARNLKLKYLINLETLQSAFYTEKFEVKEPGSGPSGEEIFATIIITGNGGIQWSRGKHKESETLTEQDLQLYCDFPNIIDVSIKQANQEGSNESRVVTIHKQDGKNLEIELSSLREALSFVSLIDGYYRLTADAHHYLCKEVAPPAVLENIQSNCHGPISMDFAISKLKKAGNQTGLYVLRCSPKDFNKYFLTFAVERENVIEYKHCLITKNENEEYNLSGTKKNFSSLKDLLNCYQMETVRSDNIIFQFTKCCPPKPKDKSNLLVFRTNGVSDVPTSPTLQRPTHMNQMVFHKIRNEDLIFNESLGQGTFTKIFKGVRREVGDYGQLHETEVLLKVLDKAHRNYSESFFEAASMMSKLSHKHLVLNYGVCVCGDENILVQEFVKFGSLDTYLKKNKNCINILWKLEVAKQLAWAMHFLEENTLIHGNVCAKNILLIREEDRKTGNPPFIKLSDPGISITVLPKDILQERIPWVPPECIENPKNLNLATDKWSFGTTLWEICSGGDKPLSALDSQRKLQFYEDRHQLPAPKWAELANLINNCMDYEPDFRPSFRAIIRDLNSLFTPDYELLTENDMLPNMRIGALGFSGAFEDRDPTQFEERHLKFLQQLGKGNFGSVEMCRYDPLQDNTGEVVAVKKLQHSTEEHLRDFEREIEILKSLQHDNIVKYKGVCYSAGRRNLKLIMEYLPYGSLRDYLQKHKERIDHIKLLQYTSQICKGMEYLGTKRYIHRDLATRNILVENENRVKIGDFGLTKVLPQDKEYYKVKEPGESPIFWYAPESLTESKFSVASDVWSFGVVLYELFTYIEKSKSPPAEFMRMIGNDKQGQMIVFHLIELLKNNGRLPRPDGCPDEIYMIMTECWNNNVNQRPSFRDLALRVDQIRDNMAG
Experiment: Biochemical JAK kinase assay (LanthaScreen), JAK2
property_name: JAK2 pKi
Just the number, please, no unit after it.

Known JAK2 pKi results, listed for orientation:
- compound: "CCCN1Cc2[nH]c(-c3n[nH]c4cc(-c5cc(F)c(O)cc5CC)ccc34)nc2C[C@H]1C(=O)N1CC(N(C)C)C1 [Compound C-5]"
  JAK2 pKi: 10.8
- compound: "CCCN1Cc2[nH]c(-c3n[nH]c4cc(-c5cc(F)c(O)cc5CC)ccc34)nc2C[C@H]1C(=O)N1CC(C)(N(C)C)C1 [Compound C-6]"
  JAK2 pKi: 10.7
- compound: "CCc1cc(O)c(F)cc1-c1ccc2c(-c3nc4c([nH]3)CN(CC)[C@H](C(=O)N3CC(N(C)C)C3)C4)n[nH]c2c1 [Compound C-2]"
  JAK2 pKi: 10.9

# input for lookup
Inquiry: # assay system JAK2 (Homo sapiens (Human)): give JAK2 pKi of CCc1cc(O)c(F)cc1-c1ccc2c(-c3nc4c([nH]3)CN(CC)[C@H](C(=O)N3CC(C)(N(C)C)C3)C4)n[nH]c2c1 [Compound C-3]
Reply text: 10.9

* * *

Test: Pharmacokinetics in plasma and lung in mouse
Type: in vivo
Settings: BALB/c, in vivo, 10 µg/animal, single oral aspiration, 0.2 mg/mL, 50 μL, read-out: Plasma AUC(0-24)
property_name: AUC(0-t) (ng·h/mL)
Enter your answer as a number in ng·h/mL; do not include the unit.

Inquiry: Supply AUC(0-t) value. Item: CCc1cc(O)ccc1-c1ccc2c(-c3nc4c([nH]3)CN(C(C)C)[C@H](C(=O)N3CC(N(C)C)C3)C4)n[nH]c2c1 [Compound 1]
Reply text: 943

* * *

Some compounds, each annotated with its measured Compound Remaining at 60 min (%).
Experiment: Lung S9 metabolism
Type: in vitro ADME, human
Settings: human lung S9, 1 μM compound, 1 mg/mL S9 protein, 60 min
Lab note: write values as number then unit, every time.

Record excerpt, results attached:
- smiles_data: "CCc1cc(O)ccc1-c1ccc2c(-c3nc4c([nH]3)CN(CC)[C@H](C(=O)N3CC(N(C)C)C3)C4)n[nH]c2c1"
  reported: "98%"
- smiles_data: "CCCN1Cc2[nH]c(-c3n[nH]c4cc(-c5cc(F)c(O)cc5CC)ccc34)nc2C[C@H]1C(=O)N1CC(N(C)C)C1"
  reported: "5%"
- smiles_data: "CCc1cc(O)c(F)cc1-c1ccc2c(-c3nc4c([nH]3)CN(CC)[C@H](C(=O)N3CC(C)(N(C)C)C3)C4)n[nH]c2c1"
  reported: "5%"
- smiles_data: "CCc1cc(O)ccc1-c1ccc2c(-c3nc4c([nH]3)CN(C(C)C)[C@H](C(=O)N3CC(N(C)C)C3)C4)n[nH]c2c1"
  reported: "81%"
- smiles_data: "CCc1cc(O)c(F)cc1-c1ccc2c(-c3nc4c([nH]3)CN(CC)[C@H](C(=O)N3CC(N(C)C)C3)C4)n[nH]c2c1"
  reported: "6%"
- smiles_data: "CCCN1Cc2[nH]c(-c3n[nH]c4cc(-c5ccc(O)cc5CC)ccc34)nc2C[C@H]1C(=O)N1CC(N(C)C)C1"
  reported: "96%"
- smiles_data: "CCc1cc(O)ccc1-c1ccc2c(-c3nc4c([nH]3)CN(C(C)C)[C@H](C(=O)N3CC(C)(N(C)C)C3)C4)n[nH]c2c1"
  reported: "100%"
- smiles_data: "CCc1cc(O)c(F)cc1-c1ccc2c(-c3nc4c([nH]3)CN(C(C)C)[C@H](C(=O)N3CC(C)(N(C)C)C3)C4)n[nH]c2c1"
  reported: "4%"

Inquiry: Output Compound Remaining at 60 min (%) of `CCCN1Cc2[nH]c(-c3n[nH]c4cc(-c5ccc(O)cc5CC)ccc34)nc2C[C@H]1C(=O)N1CC(C)(N(C)C)C1`
Reply text: 90%

Inquiry: Note down Compound Remaining at 60 min (%) recorded for `CCc1cc(O)c(F)cc1-c1ccc2c(-c3nc4c([nH]3)CN(C(C)C)[C@H](C(=O)N3CC(N(C)C)C3)C4)n[nH]c2c1`
Reply text: 6%

Inquiry: Report Compound Remaining at 60 min (%) for `CCc1cc(O)ccc1-c1ccc2c(-c3nc4c([nH]3)CN(CC)[C@H](C(=O)N3CC(C)(N(C)C)C3)C4)n[nH]c2c1`
Reply text: 97%

Inquiry: Please list Compound Remaining at 60 min (%) recorded for the compound `CCCN1Cc2[nH]c(-c3n[nH]c4cc(-c5cc(F)c(O)cc5CC)ccc34)nc2C[C@H]1C(=O)N1CC(C)(N(C)C)C1`
Reply text: 4%

* * *

Assay: Lung S9 metabolism
Type: in vitro ADME, human
Conditions: human lung S9 fraction, pH 7.4; human lung S9, 1 μM compound, 1 mg/mL S9 protein, NADPH and PAPS; read-out: Clearance
property_name: microsomal CLint at 1 µM (µL/min/mg)
Unit µL/min/mg implied. Number only.

Worked cases, answers included:
- smiles_data: "CCCN1Cc2[nH]c(-c3n[nH]c4cc(-c5cc(F)c(O)cc5CC)ccc34)nc2C[C@H]1C(=O)N1CC(C)(N(C)C)C1"
  reported: 53.5
- smiles_data: "CCc1cc(O)ccc1-c1ccc2c(-c3nc4c([nH]3)CN(C(C)C)[C@H](C(=O)N3CC(N(C)C)C3)C4)n[nH]c2c1"
  reported: 3.5
- smiles_data: "CCc1cc(O)c(F)cc1-c1ccc2c(-c3nc4c([nH]3)CN(C(C)C)[C@H](C(=O)N3CC(N(C)C)C3)C4)n[nH]c2c1"
  reported: 49

# input for lookup
Inquiry: Retrieve microsomal CLint at 1 µM measured for `CCc1cc(O)ccc1-c1ccc2c(-c3nc4c([nH]3)CN(CC)[C@H](C(=O)N3CC(C)(N(C)C)C3)C4)n[nH]c2c1` and print it.
Reply text: 0.8
